target: human DP2 (Homo sapiens, UniProt Q9Y5Y4); construct: expressed in transfected cells; membranes prepared; assay: DP-2 binding inhibition assay (3H-PGD2, membranes of DP2-expressing K562 cells); conditions: EC50 (nM) 4% HSA, 4% HSA
readout: EC50 (nM)
Entry rule: numbers only, all in nM.

Per the records, this molecule ( COc1ccc(CCNC(=O)c2ccc(Oc3cc4c(cc3Cl)C(C(=O)O)CCO4)cc2)c(OC)n1 (stereo not shown) [Example 140] ) has EC50 equal to 107

----------
I'd appreciate it if you could supply EC50 values for the items below.
Molecular target: human DP2 (Homo sapiens, UniProt Q9Y5Y4)
Construct: expressed in transfected cells; membranes prepared
Sequence (Q9Y5Y4 1-395): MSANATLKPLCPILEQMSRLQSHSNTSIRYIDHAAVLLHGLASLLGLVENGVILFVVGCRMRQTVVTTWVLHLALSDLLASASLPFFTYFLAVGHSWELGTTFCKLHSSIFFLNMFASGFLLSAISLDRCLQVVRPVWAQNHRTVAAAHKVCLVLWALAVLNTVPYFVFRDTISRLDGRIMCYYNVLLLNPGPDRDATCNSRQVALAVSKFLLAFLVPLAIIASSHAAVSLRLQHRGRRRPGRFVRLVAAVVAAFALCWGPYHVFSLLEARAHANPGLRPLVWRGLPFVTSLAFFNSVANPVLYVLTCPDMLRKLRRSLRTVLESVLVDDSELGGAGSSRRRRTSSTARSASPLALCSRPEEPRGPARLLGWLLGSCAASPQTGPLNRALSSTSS
Test: DP-2 binding inhibition assay (3H-PGD2, membranes of DP2-expressing K562 cells)
Conditions: 4% HSA, read-out: EC50 (nM) 4% HSA

Per the records, this compound ( N#Cc1cc2c(cc1Oc1ccc(C(=O)Nc3cccc(-c4ccc(Cl)cc4)n3)cc1)OCCC2C(=O)O (centres unmarked) [Example 51] ) has EC50 equal to 51.3 nM

Per the records, this compound ( O=C(Nc1cccc(-c2ccc(Cl)cc2)n1)c1ccc(Oc2cc3c(cc2Cl)[C@H](C(=O)O)CCO3)cc1 (single isomer, unassigned; enantiomer 2) [Example 142] ) has EC50 equal to 21.7 nM

Per the records, this compound ( O=C(NCCc1ccc(C(F)(F)F)nc1C1CC1)c1ccc(Oc2cc3c(cc2Cl)C(C(=O)O)CCO3)cc1 (centres unmarked) [Example 186] ) has EC50 equal to 32.6 nM

Per the records, this compound ( O=C(Nc1ccn(-c2ccc(F)cc2F)n1)c1ccc(Oc2cc3c(cc2Cl)C(C(=O)O)CCO3)cc1 (centres unmarked) [Example 168] ) has EC50 equal to 112 nM

Per the records, this compound ( O=C(Nc1ccc2cc(Cl)ccc2n1)c1ccc(Oc2cc3c(cc2Cl)C(C(=O)O)CCO3)cc1 (centres unmarked) [Example 30] ) has EC50 equal to 134 nM

Per the records, this compound ( O=C(NCCc1cccn1-c1ccc(C(F)(F)F)cc1)c1ccc(Oc2cc3c(cc2Cl)C(C(=O)O)CCO3)cc1 (centres unmarked) [Example 212] ) has EC50 equal to 3010 nM

Per the records, this compound ( O=C(Nc1cncc(-c2cccc(C(F)(F)F)c2)n1)c1ccc(Oc2cc3c(cc2Cl)C(C(=O)O)CCO3)cc1 (centres unmarked) [Example 94] ) has EC50 equal to 208 nM

Per the records, this compound ( COc1ncccc1CCNC(=O)c1ccc(Oc2cc3c(cc2Cl)C(C(=O)O)CCO3)cc1 (centres unmarked) [Example 227] ) has EC50 equal to 857 nM

Per the records, this compound ( O=C(Nc1ccc2cc(Cl)ccc2n1)c1ccc(Oc2c(Cl)cc3c(c2Cl)OCCC3C(=O)O)cc1 (centres unmarked) [Example 144] ) has EC50 equal to 299 nM

Per the records, this compound ( O=C(Nc1cccc(-c2ccc(Cl)c(C(F)(F)F)c2)n1)c1ccc(Oc2cc3c(cc2Cl)C(C(=O)O)CCO3)cc1 (centres unmarked) [Example 53] ) has EC50 equal to 40.9 nM

Per the records, this compound ( O=C(Nc1ccc(-c2ccc(Cl)cc2F)nn1)c1ccc(Oc2cc3c(cc2Cl)C(C(=O)O)CCO3)cc1 (centres unmarked) [Example 72] ) has EC50 equal to 1110 nM

Per the records, this compound ( N#Cc1cc2c(cc1Oc1ccc(C(=O)Nc3nnc(-c4ccc(Cl)cc4)s3)cc1)OCCC2C(=O)O (centres unmarked) [Example 147] ) has EC50 equal to 3440 nM

Per the records, this compound ( O=C(Nc1ccc2ccc(Cl)cc2n1)c1ccc(Oc2cc3c(cc2Cl)C(C(=O)O)CCO3)cc1 (centres unmarked) [Example 17] ) has EC50 equal to 178 nM

Per the records, this compound ( O=C(Nc1cccc(-c2cc(F)cc(F)c2)n1)c1ccc(Oc2cc3c(cc2Cl)C(C(=O)O)CCO3)cc1 (centres unmarked) [Example 89] ) has EC50 equal to 251 nM

Per the records, this compound ( O=C(Nc1cccc(-c2ccc(Cl)c(Cl)c2)n1)c1ccc(Oc2cc3c(cc2Cl)C(C(=O)O)CCO3)cc1 (centres unmarked) [Example 52] ) has EC50 equal to 50.8 nM

Per the records, this compound ( O=C(Nc1ccc(-c2ccccc2Cl)cn1)c1ccc(Oc2cc3c(cc2Cl)C(C(=O)O)CCO3)cc1 (centres unmarked) [Example 117] ) has EC50 equal to 264 nM

Per the records, this compound ( O=C(Nc1ccc(-c2ccc(F)cc2)nn1)c1ccc(Oc2cc3c(cc2Cl)C(C(=O)O)CCO3)cc1 (centres unmarked) [Example 66] ) has EC50 equal to 306 nM

Per the records, this compound ( CC(C)(C)Sc1cccc(NC(=O)c2ccc(Oc3cc4c(cc3Cl)C(C(=O)O)CCO4)cc2)n1 (centres unmarked) [Example 91] ) has EC50 equal to 897 nM

Per the records, this compound ( O=C(Nc1cccc(-c2ccc(F)cc2F)n1)c1ccc(Oc2cc3c(cc2Cl)C(C(=O)O)CCO3)cc1 (centres unmarked) [Example 82] ) has EC50 equal to 120 nM

Per the records, this compound ( O=C(Nc1cccc(-c2ccc(Cl)cc2)n1)c1ccc(Oc2c(C3CC3)cc3c(c2C2CC2)OCCC3C(=O)O)cc1 (centres unmarked) [Example 107] ) has EC50 equal to 52.2 nM

Per the records, this compound ( O=C(Nc1cccc(-c2ccc(Cl)cc2)n1)c1ccc(Oc2c(Cl)cc3c(c2Cl)OCCC3C(=O)O)cc1 (centres unmarked) [Example 143] ) has EC50 equal to 83.4 nM

Per the records, this compound ( O=C(Nc1nc(-c2ccc(F)cc2)cs1)c1ccc(Oc2cc3c(cc2Cl)C(C(=O)O)CCO3)cc1 (centres unmarked) [Example 153] ) has EC50 equal to 67.5 nM

Per the records, this compound ( O=C(Nc1nccc(-c2cccc(Cl)c2)n1)c1ccc(Oc2cc3c(cc2Cl)C(C(=O)O)CCO3)cc1 (centres unmarked) [Example 133] ) has EC50 equal to 261 nM

Per the records, this compound ( O=C(Nc1cc(C(F)(F)F)ccn1)c1ccc(Oc2cc3c(cc2Cl)C(C(=O)O)CCO3)cc1 (centres unmarked) [Example 31] ) has EC50 equal to 1730 nM

Per the records, this compound ( CC(C)(C)c1ccc(-c2cccc(NC(=O)c3ccc(Oc4cc5c(cc4Cl)C(C(=O)O)CCO5)cc3)n2)cc1 (centres unmarked) [Example 85] ) has EC50 equal to 22.5 nM

Per the records, this compound ( O=C(Nc1nc2ccc(Cl)cc2s1)c1ccc(Oc2cc3c(cc2Cl)C(C(=O)O)CCO3)cc1 (centres unmarked) [Example 207] ) has EC50 equal to 105 nM

Per the records, this compound ( Cc1cc2ccccc2nc1NC(=O)c1ccc(Oc2cc3c(cc2Cl)C(C(=O)O)CCO3)cc1 (centres unmarked) [Example 26] ) has EC50 equal to 1910 nM

Per the records, this compound ( N#Cc1cc2c(cc1Oc1ccc(C(=O)Nc3cccc(-c4ccc(Cl)cc4Cl)n3)cc1)OCCC2C(=O)O (centres unmarked) [Example 49] ) has EC50 equal to 87.3 nM

Per the records, this compound ( O=C(Nc1cc(-c2ccc(F)cc2)n[nH]1)c1ccc(Oc2cc3c(cc2Cl)C(C(=O)O)CCO3)cc1 (centres unmarked) [Example 181] ) has EC50 equal to 313 nM
